- System: ACHN renal
- protocol details: NCI tumour cell line growth inhibition, 48 h
quantity measured: TGI

Value wanted: TGI (ACHN renal) of entry COc1cccc(NC(=O)c2sc3nc4c(cc3c2N)CCCC4)c1
> 100 µM

Hi! What's the reported TGI for CC(=O)c1ccc(Nc2cc(-n3ccnc3)nc3ccccc23)cc1 on ACHN renal?
> 100 µM

Which TGI is reported with ACHN renal for this entry: COc1cc2c(cc1OC)C(=O)C(Br)CC2 (stereo not drawn) ?
3.7 µM

Look up TGI with ACHN renal for this molecule: O=[N+]([O-])c1cccc(N=C2c3ccccc3CN2c2cccc([N+](=O)[O-])c2)c1
> 100 µM

# query: TGI | item O=C1C=C[C@]2(C[C@@H](c3cccc(C(F)(F)F)c3)O[C@@H](c3cccc(C(F)(F)F)c3)O2)O1 | system: ACHN renal
3.1 µM

Notebook: pull reported TGI for ACHN renal, entry O=C(O)C(CS)NCc1c2ccccc2[n+]([O-])c2ccccc12 (stereo not drawn)
> 100 µM

Report TGI for O=C1c2ccccc2-c2c1c1ccccc1c(=O)n2CCO tested on ACHN renal.
10.4 µM

What value of TGI on ACHN renal does CCOC(=O)C1(Cc2ccccc2)Cc2cc3c(cc2C1)CCC3 have?
> 100 µM
